B1: Osa-1-4 twister ribozyme (parent)
chain: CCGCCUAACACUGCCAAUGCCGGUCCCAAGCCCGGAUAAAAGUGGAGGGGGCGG

Variants of: B1
Test: self-cleavage, relative activity (ratio to wild type); higher = more cleavage; co-transcriptional
Exercise: for every item that follows, state its recorded self-cleavage.
One number for each entry.

# annotated cases, reported self-cleavage shown
A40G G51C
0.07
A16G
1.01
A16U G35U
0.82
A39C C9A
0.28
C11U G48U
0.05
C33A U37C
0.14

Return reported self-cleavage values for all items listed beneath this line.
1. A17C U37A
2. C31A G34U
3. C21U G47C
4. C9A G35U
5. C14A U12C
6. A16C A36G

Output:
1. 0.41
2. 0.04
3. 0.12
4. 0.32
5. 0.05
6. 1.01
